Data origin: the RNAGym collection of RNA variant scans (doi:10.7554/elife.80360)

B1: Hairpin Ribozyme (parent)
chain: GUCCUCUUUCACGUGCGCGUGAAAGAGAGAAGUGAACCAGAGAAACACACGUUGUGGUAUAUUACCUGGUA

# Variants of: B1
# Assay Info: self-cleavage, relative activity (ratio to wild type); higher = more cleavage; co-transcriptional
Give 1 when the value for self-cleavage is at least 0.4. Give 0 when it is less.

Observe how each entry below is paired with its result.
GUCCUCUUUCACGUGCGCCUGAACGAGAGAAGUGAACCAGAGAAACACACGUUGUGGUAUAUUACCUGGUA [G19C A24C] :: 1
GUCCUCUUUCACGUGCGCGUGAAAGAGAGAGGUAAACCAGAGAAACACACGUUGUGGUAUAUUACCUGGUA [A31G G34A] :: 1

# input API: above_or_equal(metric=self-cleavage, cutoff=0.4) for item GUCCUCUUUCACGUGCGCGUGAACGAGAGAAGUGAACCAGAGAAACACACGUUGUGGGAUAUUACCUGGUA [A24C U58G]
# output 1

# input Can you handle GUCCUCUUUAACGUGCGCGUGAAAGAGAGUAGUGAACCAGAGAAACACACGUUGUGGUAUAUUACCUGGUA [C10A A30U] next?
# output 0

# input Can you handle GUCCUCUCUCACGUGCGCGUGAAAGAGAGAAGUGAACCAGAGAAACACACGUUGUGGUAUAUUACCUGGAA [U8C U70A] next?
# output 1

# input Can you handle GUCCUCUUUCACGUGCGCGUGAAAGAGAGAAGUGUACCAGAGAAACACACGUUGCGGUAUAUUACCUGGUA [A35U U55C] next?
# output 0

# input Can you handle GUCCUCGUUCACGUGGGCGUGAAAGAGAGAAGUGAACCAGAGAAACACACGUUGUGGUAUAUUACCUGGUA [U7G C16G] next?
# output 1
